Entries and their pIC50 values follow.
System: benzodiazepine receptor
Assay Name: benzodiazepine receptor bonding test using [^3 H] flunitrazepam as radioligand (FNB)
Type: binding
Experimental Setup: [^3 H] flunitrazepam; racemate tested unless otherwise noted; read-out: IC50 value FNB (flunitrazepam bonding test)
pIC50: −log10 of the molar value.

- Molecule: "Cc1nnc2n1-c1sc3c(c1C(c1ccccc1Cl)=NC2)CCCC3 [Compound (A), reference compound]"
  Qualifying Sign: "="
  pIC50: 7.68
- Molecule: "Cc1cnc2n1-c1sc3c(c1C(c1ccccc1Cl)=NC2)CC(Cn1cncn1)CC3 (centres unmarked)"
  Qualifying Sign: "<"
  pIC50: 5.30
- Molecule: "Cc1nnc2n1-c1sc3c(c1C(c1ccccc1Cl)=NC2)CC(C(=O)NCC(=O)N1CCOCC1)C3 (centres unmarked)"
  Qualifying Sign: "="
  pIC50: 6.42
- Molecule: "Cc1nnc2n1-c1sc3c(c1C(c1ccccc1Cl)=NC2)CCC(C(=O)N1CCOCC1)C3 (centres unmarked)"
  Qualifying Sign: "<"
  pIC50: 5.30
- Molecule: "Cc1nnc2n1-c1ccc(Cl)cc1C(c1ccccc1Cl)=NC2 [Triazolam, reference compound]"
  Qualifying Sign: "="
  pIC50: 8.85
- Molecule: "Cc1nnc2n1-c1sc3c(c1C(c1ccccc1Cl)=NC2)CC(CO)CC3 (centres unmarked)"
  Qualifying Sign: "="
  pIC50: 5.97
- Molecule: "Cc1nnc2n1-c1sc3c(c1C(c1ccccc1Cl)=NC2)C(C(=O)N(C)C)CC3 (centres unmarked)"
  Qualifying Sign: "="
  pIC50: 5.84
- Molecule: "Cc1nnc2n1-c1sc3c(c1C(c1ccccc1Cl)=NC2)CC(CN1CCOCC1)C3 (centres unmarked)"
  Qualifying Sign: "="
  pIC50: 6.04
